Species: Rattus norvegicus
Assay: Open TG-GATES - Regimen: Single
Format: toxicity, organism-based, Sprague-Dawley
Design: regimen Single, gender Male, age 6 weeks
Settings: in vivo, po, 300 mg/kg, 6 h, tissue Plasma, route gavage, dose level Middle
We begin with a simple list: items and their reported TP.
observation type: TP (g/dL)

In [3]: df
Out[3]:
                                   compound  observation_type  reported_measurement
0  O=C(O)c1cn(C2CC2)c2cc(N3CCNCC3)c(F)cc2c1=O [CIPROFLOXACIN]                TP                   5.6
1  O=C(O)c1cc(/N=N/c2ccc(S(=O)(=O)Nc3ccccn3)cc2)ccc1O [SULFASALAZINE]                TP                   5.7
2  C[C@H](CS)C(=O)N1CCC[C@H]1C(=O)O [CAPTOPRIL]                TP                   5.1
3          CCc1cc(C(N)=S)ccn1 [ETHIONAMIDE]                TP                   5.6
4    Clc1ccccc1CN1CCc2sccc2C1 [TICLOPIDINE]                TP                   5.5

---

Species: Rattus norvegicus
Test: Open TG-GATES - Regimen: Single
Assay type: toxicity, organism-based, Sprague-Dawley
Design: regimen Single, gender Male, age 6 weeks
Details: in vivo, po, 0 mg/kg, 9 h, tissue Liver, route gavage, dose level Control
Label False if LIVER falls below 9 g; label True in every other case.

In [3]: df
Out[3]:
                                   compound  label
0  CSc1ccc2c(c1)N(CCC1CCCCN1C)c1ccccc1S2 (stereo unspecified)  False
1                     CC(=O)Oc1ccccc1C(=O)O  False
2  O=C(O)c1cn(C2CC2)c2cc(N3CCNCC3)c(F)cc2c1=O  False
3          C[C@H](CS)C(=O)N1CCC[C@H]1C(=O)O   True
4  NC(=O)N1c2ccccc2C=Cc2ccccc21 [CARBAMAZEPINE]   True

---

Species: Rattus norvegicus
Assay: Open TG-GATES - Regimen: Single
Type: toxicity, organism-based, Sprague-Dawley
Parameters: regimen Single, gender Male, age 6 weeks
Conditions: in vivo, po, 1000 mg/kg, 6 h, tissue Blood, route gavage, dose level High
observation type: Ret (%)

>>> df
                                   compound  observation_type  reported_measurement
0          CCc1cc(C(N)=S)ccn1 [ETHIONAMIDE]               Ret                   7.9
1  O=C(O)c1cc(/N=N/c2ccc(S(=O)(=O)Nc3ccccn3)cc2)ccc1O               Ret                   7.3
2                  Clc1ccccc1CN1CCc2sccc2C1               Ret                   8.6
3          C[C@H](CS)C(=O)N1CCC[C@H]1C(=O)O               Ret                   8.2
4  O=C(O)c1cn(C2CC2)c2cc(N3CCNCC3)c(F)cc2c1=O               Ret                    10
